Experiment: Population PK model
Type: in vivo, human
Details: human, plasma, oral

COMPOUND	half-life (h)
C=CC(=O)N1CCC([C@@H]2CCNc3c(C(N)=O)c(-c4ccc(Oc5ccccc5)cc4)nn32)CC1 [zanubrutinib, Zanubrutinib]	3.44

###

Assay type: in vivo, human
Details: human, plasma, oral, 160 mg, total daily AUC, 160 mg b.i.d., typical patient

MOLECULAR_STRING	AUC
C=CC(=O)N1CCC([C@@H]2CCNc3c(C(N)=O)c(-c4ccc(Oc5ccccc5)cc4)nn32)CC1	1890 ng·h/mL
